These measurements were taken from patent US20210348119A1.

Quick reference for Emax among some molecules
Tested on: H9 cells
Assay: qHTS for survival of dissociated H9 cells (CellTiter-Glo, 24 hours after seeding)
Type: cell-based, human
Conditions: Homo sapiens, H9, 24 h, H9 cell survival, normalized to 10 μM Y-27632; read-out: Efficacy (activity range between predicted activities at zero and infinite doses, Hill equation)
Where a name gives a salt, the structure may show the parent alone.
Property Label: Emax (%)

Molecule	Uom	Result Number
COc1ccc2c(c1)C[C@H](C(=O)Nc1ccc(-c3cn[nH]c3)cc1OCCN(C)C)CO2 [Chroman 1]	%	108
CN1CCN(c2nc(C3=C(c4c[nH]c5ccccc45)C(=O)NC3=O)c3ccccc3n2)CC1 [Sotrastaurin]	%	36.5
COCC(=O)NC/C=C/c1ccc2ncnc(Nc3ccc(Oc4ccc(C)nc4)c(C)c3)c2c1 [CP-724714]	%	23.5
CNCCC(Oc1ccc(C(F)(F)F)cc1)c1ccccc1 (centres unmarked) [Fluoxetine hydrochloride]	%	0
O=C(c1ccc(/C=C/c2n[nH]c3ccccc23)cc1)N1CCNCC1 [KW-2449]	%	44.5
CC[C@@](C)(Nc1ccnc(-c2c[nH]c3ncccc23)n1)C(=O)NCC(F)(F)F [Decernotinib]	%	30.1
CC(C)(C)c1nc(-c2cccc(NS(=O)(=O)c3c(F)cccc3F)c2F)c(-c2ccnc(N)n2)s1 [Dabrafenib]	%	21.7
CN(C)CCOc1cc(-c2cn[nH]c2)ccc1NC(=O)C1COc2ccccc2O1 (centres unmarked) [SR-3677]	%	118
CNS(=O)(=O)C[C@H]1CC[C@H](N(C)c2ncnc3[nH]ccc23)CC1 [Oclacitinib (PF-03394197), Oclacitinib]	%	99.9
Nc1nc2nc[nH]c2c(=S)[nH]1 [Tioguanine]	%	0
NC[C@@](O)(c1ccc(Cl)cc1)c1ccc(-c2cn[nH]c2)cc1 [AT-13148]	%	64.5
Cc1n[nH]c2ccc(-c3cncc(OC[C@@H](N)Cc4c[nH]c5ccccc45)c3)cc12 [A-443654]	%	0
COCCOc1ccc2c(c1)ncn2-c1ccc2cccc(N3CCC(N)CC3)c2n1 [CP-673451]	%	0
Oc1cccc2c(O)nccc12 [1,5-Isoquinolinediol]	%	42.2
O=C(O)Cc1cc(I)c(Oc2cc(I)c(O)c(I)c2)c(I)c1 [TETRAC]	%	35.8
c1ccc2c3c([nH]c2c1)CNCC3 [tryptoline]	%	-33.1
CC1(C)CC[C@]2(C(=O)O)CC[C@]3(C)C(=CC[C@@H]4[C@@]5(C)CC[C@H](O)C(C)(C)[C@@H]5CC[C@]43C)[C@@H]2C1 [Oleanolic acid]	%	-10.7

* * *

System: H9 cells
Assay: qHTS for survival of dissociated H9 cells (CellTiter-Glo, 24 hours after seeding)
Format: cell-based, human
Settings: Homo sapiens, H9, 24 h; read-out: Max (maximum activity value from all tested concentrations)
Property Label: Emax (%)

Molecule	Result Number
Cc1c[nH]c2ncnc(N3CCC(CN)(C(=O)Nc4cccc(OC(=O)N(C)C)c4)CC3)c12	53.7
C/C=C(/C)C(=O)O[C@H]1C(C)=C[C@]23C(=O)[C@@H](C=C(CO)[C@@H](O)[C@]12O)[C@H]1[C@@H](C[C@H]3C)C1(C)C [Ingenol mebutate]	57.6
C[S+]([O-])c1ccc(-c2nc(-c3ccncc3)c(-c3ccc(F)cc3)[nH]2)cc1 (stereo not shown)	35.6
CCC[C@@]1(CCc2ccccc2)CC(O)=C([C@H](CC)c2cccc(NS(=O)(=O)c3ccc(C(F)(F)F)cn3)c2)C(=O)O1	21.8
O=C1NC(=O)C(=O)C(=O)N1	22.4
Cc1c(O)c(O)cc2c1CC=C1[C@@]2(C)CC[C@@]2(C)[C@@H]3C[C@](C)(C(=O)O)CC[C@]3(C)CC[C@]12C [DIHYDROCELASTROL]	21.2
C[C@H](NC(=O)C(=O)Nc1ccccc1C(C)(C)C)C(=O)N[C@@H](CC(=O)O)C(=O)COc1c(F)c(F)cc(F)c1F	76.4
